Target: Transitional endoplasmic reticulum ATPase (Homo sapiens) (UniProt P55072)
Sequence (P55072 whole entry, looked up): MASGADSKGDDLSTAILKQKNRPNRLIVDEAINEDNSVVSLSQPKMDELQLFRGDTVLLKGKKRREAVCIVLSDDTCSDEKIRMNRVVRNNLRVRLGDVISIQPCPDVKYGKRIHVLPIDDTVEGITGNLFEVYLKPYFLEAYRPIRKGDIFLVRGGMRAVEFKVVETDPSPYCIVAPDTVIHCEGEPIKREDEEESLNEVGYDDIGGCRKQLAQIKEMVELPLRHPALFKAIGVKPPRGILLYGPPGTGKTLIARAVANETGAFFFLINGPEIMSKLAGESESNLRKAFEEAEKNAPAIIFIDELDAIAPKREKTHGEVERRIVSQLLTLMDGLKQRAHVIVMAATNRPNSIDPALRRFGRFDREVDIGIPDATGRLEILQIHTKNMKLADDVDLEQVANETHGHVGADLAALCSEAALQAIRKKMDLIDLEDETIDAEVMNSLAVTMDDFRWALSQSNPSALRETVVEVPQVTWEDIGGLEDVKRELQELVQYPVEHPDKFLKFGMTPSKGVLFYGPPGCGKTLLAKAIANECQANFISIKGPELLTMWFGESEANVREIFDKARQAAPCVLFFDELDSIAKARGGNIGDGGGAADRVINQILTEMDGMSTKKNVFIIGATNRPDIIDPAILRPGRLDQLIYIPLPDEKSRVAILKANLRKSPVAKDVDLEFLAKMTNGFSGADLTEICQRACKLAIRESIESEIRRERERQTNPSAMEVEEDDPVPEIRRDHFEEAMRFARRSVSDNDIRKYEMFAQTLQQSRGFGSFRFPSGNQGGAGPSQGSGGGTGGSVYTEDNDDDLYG
Test: inhibition of purified VCP ATP hydrolysis – biochemical, dose response (AID 463184)
Details: purified p97 ATPase, Kinase-Glo luminescence
The source made the active and inactive calls.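 The calls were made as follows: active = IC50 of 10 microM or lower; inactive = the rest.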
Just give me one of these, please: active, inactive

Answered examples (3):
[Q] GET /call?item= N#C/C(=C(\O)COC(=O)CCC(=O)c1ccc2c(c1)OCCO2)c1nc2ccccc2[nH]1 returns the recorded outcome of this test.
[A] active

[Q] Could you check what this test reported for Cc1ccccc1CNc1nc(NCc2ccccc2)c2ccccc2n1 ?
[A] active

[Q] Test call, this molecule: Clc1ccc(CNc2nc(NCc3ccccc3)c3ccccc3n2)cc1Cl
[A] active

Others:
[Q] Could you please tell me the result logged for Fc1ccc(CNc2nc(NCc3ccccc3)c3ccccc3n2)cc1 in this assay?
[A] active

[Q] What outcome does the record of this test show for Nc1nc(CCl)nc(Nc2ccc(Cl)c(Cl)c2)n1 ?
[A] inactive

[Q] Outcome? N#C/C(=C(\O)COC(=O)CNc1ccc(C(F)(F)F)cc1[N+](=O)[O-])c1nc2ccccc2[nH]1
[A] inactive

###

Molecular target: Transitional endoplasmic reticulum ATPase (Homo sapiens)
Test: inhibition of purified VCP ATP hydrolysis – biochemical, dose response (AID 463184)
Details: purified p97 ATPase, Kinase-Glo luminescence
Calls of active or inactive are those of the source.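 The calls were made as follows: active = IC50 of 10 microM or lower; inactive = the rest.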
Output constraint: value belongs to Yes for active, No for inactive

Please review the entries below; each comes with its answer.
[Q] Given Nc1nc(CCl)nc(N(c2ccccc2)c2ccccc2)n1 , state the outcome it received in this test.
[A] No

[Q] Hey, what did the test say about Brc1cccc(CNc2nc(NCc3ccccc3)c3ccccc3n2)c1 ?
[A] Yes

[Q] I'd appreciate the recorded outcome for Clc1ccccc1CNc1nc(NCc2ccccc2)c2ccccc2n1 from this test.
[A] Yes

[Q] Recorded call for CC(C)c1ccc(Nc2nc(N)nc(CCl)n2)cc1 ?
[A] No

[Q] Please state the recorded outcome for this molecule: COc1ccccc1CNc1nc(NCc2ccccc2)c2ccccc2n1
[A] Yes

[Q] Outcome logged for Brc1ccc(CNc2nc(NCc3ccccc3)c3ccccc3n2)cc1 in this assay:
[A] Yes

[Q] Fill in: this test's call for Clc1ccc(CNc2nc(NCc3ccccc3)c3ccccc3n2)cc1 is ___
[A] Yes

[Q] Outcome logged for CCc1nc2ccccc2n1CC(=O)OC/C(O)=C(/C#N)c1nc2ccccc2[nH]1 in this assay:
[A] No

---
[Q] For this molecule, state the assay outcome: Cc1ccc(CNc2nc(NCc3ccccc3)c3ccccc3n2)cc1
[A] Yes

[Q] Assay result, entry FC(F)(F)c1ccc(CNc2nc(NCc3ccccc3)c3ccccc3n2)cc1 — outcome?
[A] Yes

[Q] Which outcome was entered for the molecule FC(F)(F)c1cc(CNc2nc(NCc3ccccc3)c3ccccc3n2)ccc1Cl in this test?
[A] Yes

###

Target: Transitional endoplasmic reticulum ATPase (Homo sapiens) (UniProt P55072)
Experiment: inhibition of purified VCP ATP hydrolysis – biochemical, dose response (AID 463184)
Conditions: purified p97 ATPase, Kinase-Glo luminescence
Active and inactive are the calls of the source.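 How the source made its calls: active means IC50 of 10 microM or lower; inactive means the rest.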
Please state which outcome applies, choosing from yes for active, no for inactive

Check out these entries, answers already filled in.
[Q] Kindly provide the recorded test outcome for the following compound: N#C/C(=C(\O)COC(=O)C1COc2ccccc2O1)c1nc2ccccc2[nH]1 (stereo not given)
[A] no

[Q] Which outcome was entered for the compound COc1ccc(CNc2nc(NCc3ccccc3)c3ccccc3n2)cc1 in this test?
[A] yes

[Q] Would you mind telling me which call this test gave Cc1cccc(CNc2nc(NCc3ccccc3)c3ccccc3n2)c1 ?
[A] yes

[Q] Recorded call for COc1cccc(CNc2nc(NCc3ccccc3)c3ccccc3n2)c1 ?
[A] yes

Next item in the queue.
[Q] Which outcome was assigned to Fc1cccc(CNc2nc(NCc3ccccc3)c3ccccc3n2)c1 in this test?
[A] yes
